# Tested on: SK-MEL-5 melanoma
# assay: NCI-60 one-dose screen, 48 h
# test.parameters: 10 µM unless noted
This is part of a sample that, as a whole, favours compounds with a hit. Of some 83,000 tested, about 20% had one in any assay. Calls of active or inactive are those of the source. Rule for the calls: active = growth percent below 10; inactive = the rest.
API: response.call in active, inactive

# example entries with known answers
For CC(O)CN(CCO)CCN(CCO)CC(C)O (stereo not given) , what call appears in the results of this test?
inactive

Also O=C(Nc1ccc(-n2cc(-c3ccncc3)c(-c3ccc(Cl)c(O)c3)n2)cc1)c1ccc(Cl)c(C(F)(F)F)c1 , if possible.
active

Now give it for COc1cc2cn3c4ccc(O)cc4[nH]c(=O)c3c2cc1OC too.
active

Next molecule up: c1ccc2[nH]c(-c3ccc(OCCCCCOc4ccc(-c5nc6ccccc6[nH]5)cc4)cc3)nc2c1
inactive

And for CCCCCCCCCCCCCCCCCC1=NCCN1CCNC(C)=O ?
inactive

// query: OC(c1ccccc1)(c1ccccc1)C(F)(F)F
inactive

Others:
For COCC(=O)NNc1[nH]c(-c2ccc(OC)cc2)cc1C#N , what call appears in the results of this test?
inactive

Please give the result for OCCN1CCN(CC/C=C2/c3ccccc3Sc3ccc(C(F)(F)F)cc32)CC1 too.
inactive

Here is the next molecule: COC(=O)C(C)[C@H]1CC[C@@H]2[C@]1(C)CC=C1[C@]23C=C[C@]2(C[C@@H](OC(C)=O)CC[C@]12C)C(C(=O)OC)C3C(=O)OC (stereo not given in full)
inactive

Cool, now COc1ccc(C(=O)c2no[n+]([O-])c2C(=O)c2ccc(OC)cc2)cc1
inactive

Try CC(=O)NNC(=O)c1sc(NC(C)=O)nc1C next.
inactive

And for O=C(NC(=S)NNC(=S)NNc1ccccc1)c1ccccc1 ?
inactive

Same again, this time with COC1NC(Cl)=C(C#N)C(C#N)(C#N)C1(C)C (stereo not given)
inactive

Here is the next molecule: COC(=O)/C=C1/CCCCC1(C)C(=O)OC (stereo not given)
inactive

// query: CC1(C)NC(=S)NC1=O
inactive

Next molecule up: O=C(Nc1ccc(Cl)c(Cl)c1)O/N=C\c1c(Cl)ccc([N+](=O)[O-])c1Cl
inactive

Please do the same for O=C(O)/C(Br)=C/c1c[nH]c2ccc(Br)cc12 as well.
inactive

Check C=CCC(CCC(CC=C)C(=O)OCC)C(=O)OCC (stereo not given) too.
inactive

How about COc1cc([C@@H]2c3cc4c(cc3[C@H](O)[C@H]3COC[C@@H]23)OCO4)cc(OC)c1OC ?
inactive

Try CC(Br)c1nc2ccccc2cc1C(N)=O (stereo not given) next.
inactive

Oc1ccc([S+](c2ccc(O)cc2)c2ccc(O)cc2)cc1 ?
inactive

Subsequent entry: COc1ccccc1Cn1cc2c(c1)-c1oncc1CC2
inactive

====

# Test system: IGROV1 ovarian
# assay: NCI-60 one-dose screen, 48 h (100 = growth as untreated, 0 = no growth, -100 = all killed)
# test.parameters: 10 µM unless noted
Compounds without any hit were thinned out: in the full panel of roughly 83,000, 20% have a hit.
property.label: growth (%)
Number only, in %; omit the unit.

Example entries and their recorded answers appear below.
What value of measured growth is listed for CCOC(=O)c1csc(-c2ccc(COC(=O)c3ccccc3)o2)n1 ?
103

What do you have for O=C(NCCNCCO)c1cc([N+](=O)[O-])cc([N+](=O)[O-])c1O ?
107

One more molecule: CCCCCCNC(=O)Oc1ccc(/C(=C(/C)Cc2ccc(OC)cc2)c2ccc(OCCN(C)C)cc2)cc1
74.4

Then CC(C)OCC1CO1 (stereo not given) ?
110

Another molecule to check: NC(=O)CC(NC(=O)COc1ccc(Cl)cc1Cl)C(=O)O (stereo not given)
109

Next:
// returns reported growth for input COC(=O)C(Cc1cnc[nH]1)N1CC(=O)N2[C@@H](c3ccccc3)SC[C@H]2C1=O (stereo not given in full)
116

Entry to check: CCOC(=O)c1c(C)oc2ncnc(Nc3ccc(C(=O)NCCc4ccccc4)cc3)c12
102

Here is the next molecule: CC1(C)NCCC[C@]2(C)[C@H]3CC=C4[C@@H]5C[C@](C)(COC(=O)c6ccccc6C(=O)O)CC[C@]5(C)CC[C@@]4(C)[C@]3(C)CC[C@@H]12
59.2

Param item: NC(N)=Nc1ccc(/C=C2\C=Cc3ccccc32)cc1
51.2

COc1nc(OC)nc(-c2cc(-c3cc(OC)c(OC)c(OC)c3)no2)n1 ?
121
